Values were extracted from paper PMC4450297.

tested on: J82; test: Cell panel screen (CellTiter-Glo); type: cell-based, human; settings: J82 (Urinary bladder), 20 micromolar, 72 hrs
Lab note: compare Percent Inhibition against 40%. Equal or greater, write 1. Smaller, write -1.

Data request: Could you verify whether the entry COC(=O)C1OC(Oc2cc(O)c3c(c2)OC(c2ccc(O)c(O)c2)CC3=O)C(O)C(O)C1O (stereo not shown) shows Percent Inhibition of no less than 40%?
Data returned: -1

Data request: Could you verify whether the entry CC(C)=CCc1c(O)cc2oc3ccc(O)cc3c(=O)c2c1O shows Percent Inhibition of no less than 40%?
Data returned: -1

Data request: Could you verify whether the entry CC(C)=CCc1c2c(c(O)c3c1OC14C(=CC5CC1C(C)(C)OC4(CC=C(C)C(=O)O)C5=O)C3=O)C=CC(C)(C)O2 (stereo not shown) shows Percent Inhibition of no less than 40%?
Data returned: 1

Data request: Could you verify whether the entry CC(C)=CCc1c2c(c3oc4c(O)c(O)ccc4c(=O)c3c1O)C=CC(C)(C)O2 shows Percent Inhibition of no less than 40%?
Data returned: -1

Data request: Could you verify whether the entry CC(C)=CCc1c(O)cc(O)c2c1O[C@]13C(=C[C@@H]4C[C@H]1C(C)(C)O[C@@]3(CC=C(C)C)C4=O)C2=O shows Percent Inhibition of no less than 40%?
Data returned: 1

Data request: Could you verify whether the entry CCOC1C2C(=O)c3c(O)c4c(c(CC=C(C)C)c3O[C@@]23[C@H]2C[C@@H]1C(=O)[C@]3(C/C=C(/C)C(=O)O)OC2(C)C)OC(C)(CCC=C(C)C)C=C4 (stereo partly shown) shows Percent Inhibition of no less than 40%?
Data returned: 1

Data request: Could you verify whether the entry CC(C)=CCc1c2c(c(O)c3c(=O)c4c(CC=C(C)C)c(O)c(O)cc4oc13)C=CC(C)(C)O2 shows Percent Inhibition of no less than 40%?
Data returned: 1

====

tested on: Panc 03.27; assay: Cell panel screen (CellTiter-Glo); assay type: cell-based, human; conditions: Homo sapiens, PANC-03-27; Panc 03.27 (Pancreas), 20 micromolar, 72 hrs; read-out: Percent Inhibition
ASSAY ENDPOINT: inhibition at 20 µM
The reply should read as a number followed by its unit.

Data request: Could you share which inhibition at 20 µM value was measured for CC(C)=CCC/C(C)=C/Cc1c(O)c(CC=C(C)C)c2c(c1O)C(=O)C1=C[C@@H]3C[C@H]4C(C)(C)O[C@@](C/C=C(\C)C=O)(C3=O)[C@@]14O2 [GB49] ?
Data returned: 98%

Data request: Could you share which inhibition at 20 µM value was measured for CC(C)=CCC/C(C)=C/Cc1c(O)c(CC=C(C)C)c2c(c1O)C(=O)C1=C[C@@H]3C[C@H]4C(C)(C)O[C@@](C/C=C(\C)C(=O)O)(C3=O)[C@@]14O2 [GB63] ?
Data returned: 99%

Data request: Could you share which inhibition at 20 µM value was measured for CC(C)=CCC[C@@]1(C)C=Cc2c(O)c3c(c(CCC(C)(C)O)c2O1)O[C@]12C(=C[C@@H]4C[C@H]1C(C)(C)O[C@@]2(C/C=C(/C)C(=O)O)C4=O)C3=O [GB39, 33-hydroxyepigambogic acid] ?
Data returned: 100%

Data request: Could you share which inhibition at 20 µM value was measured for CC(C)=CCc1c(O)cc2oc3c(CC=C(C)C)c(O)c(O)c(CC=C(C)C)c3c(=O)c2c1O [bn-1, Garcinone E] ?
Data returned: 90%

Data request: Could you share which inhibition at 20 µM value was measured for CC(C)=CCC[C@@]1(C)C=Cc2c(O)c3c(c(C/C=C(\C)CO)c2O1)O[C@]12C(=C[C@@H]4C[C@H]1C(C)(C)O[C@@]2(C/C=C(/C)C(=O)O)C4=O)C3=O [GB40, 35-hydroxyepigambogic acid] ?
Data returned: 99%
